test: ATG_GLI_CIS: Attagene CIS-FACTORIAL HepG2 Assay for human Zinc Finger Protein GLI1 (AID 2282945); settings: HepG2, Attagene cis-factorial reporter mRNA, GLI element; actives raise or lower the signal
The source made the active and inactive calls. How the source made its calls: active means hit-call score of the fitted dose curve at least 0.9, where 1 is the maximum; inactive means score below 0.9.
Possible outcomes: active, inactive

- COc1cccc(C(=O)NN(C(=O)c2cc(C)cc(C)c2)C(C)(C)C)c1C: inactive
- COP(=O)(OC)SCn1c(=O)oc2cc(Cl)cnc21: inactive
- O=c1ccc(=O)[nH][nH]1: inactive
- CCOP(=O)(NC(C)C)Oc1ccc(SC)c(C)c1 (stereo unspecified): inactive
- CCOC(=O)COc1cc(-c2nn(C)c(OC(F)F)c2Cl)c(F)cc1Cl: inactive
- CCOP(=S)(OCC)Oc1ccc([N+](=O)[O-])cc1: inactive
- CN(C)[C@@H]1C(=O)C(C(N)=O)=C(O)[C@@]2(O)C(=O)C3=C(O)c4c(O)cccc4[C@@](C)(O)[C@H]3[C@H](O)[C@@H]12: inactive
- CCCCN(CC)c1c([N+](=O)[O-])cc(C(F)(F)F)cc1[N+](=O)[O-]: inactive
- C#CCC1=C(C)C(OC(=O)C2C(C=C(C)C)C2(C)C)CC1=O (stereo unspecified): active
- CCOC(=O)CC(SP(=O)(OC)OC)C(=O)OCC (stereo unspecified): inactive
- CC(=NC#N)N(C)Cc1ccc(Cl)nc1: inactive
